Test system: HL-60
TEST: NCI tumour cell line growth inhibition, 48 h
Activity calls are given as the source filed them. Rule as the data show it: active = GI50 up to about 1.1 µM and inactive = higher.
Outcome codes: True (active), False (inactive)

MOLECULE: Cc1nc2ccccc2c(=O)n1-c1ccccc1I
ASSIGNED_CATEGORY: False

MOLECULE: Brc1ccc2[nH]cc(-c3csc(-c4c[nH]c5ccccc45)n3)c2c1
ASSIGNED_CATEGORY: False

MOLECULE: C1=C(c2ccccc2)CN(c2ccccc2)OC1
ASSIGNED_CATEGORY: False

MOLECULE: CCCCCCCCCC(=O)OCC1OC(n2cc(F)c(=O)[nH]c2=O)C(NC(=O)OCc2ccccc2)C(OC(=O)CCCCCCCCC)C1O (stereo unspecified)
ASSIGNED_CATEGORY: False

MOLECULE: COc1ccc(OC)c(C[P+](c2ccccc2)(c2ccccc2)c2ccccc2)c1
ASSIGNED_CATEGORY: True

MOLECULE: CCOC(=O)C(NC(=O)c1cccc(Cl)c1)(N1CCN(c2cc3c(cc2F)c(=O)c(C(=O)O)cn3C2CC2)CC1)C(F)(F)F (stereo unspecified)
ASSIGNED_CATEGORY: False

MOLECULE: Cc1nc2ccccc2c(=O)[nH]1
ASSIGNED_CATEGORY: False

MOLECULE: COc1ccccc1C12OC(=O)C1(C)Oc1ccccc1C2=O (stereo unspecified)
ASSIGNED_CATEGORY: False

MOLECULE: COc1ccc(N2NC(c3ccccc3)(c3ccccc3)C(C)C2=O)cc1 (stereo unspecified)
ASSIGNED_CATEGORY: False

MOLECULE: COc1cc(CC2CCc3nc(N)nc(N)c3C2)cc(OC)c1OC (stereo unspecified)
ASSIGNED_CATEGORY: True

MOLECULE: C/C(CCOC1CCCCO1)=C(\C)[Si](C)(C)C (stereo unspecified)
ASSIGNED_CATEGORY: False

Ref: ChEMBL document CHEMBL1201862
